Data origin, for the record: PubChem BioAssay AID1063

- measurementNotes: Leishmania major promastigote growth inhibition, primary screen (AID 1063);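 further: promastigotes grown with compound for 44 hours at 28 °C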
- conditionInfo: Leishmania major promastigotes, resazurin fluorescence viability; at 10 µM; hits give high values
The whole screen tested about 200,000 compounds, of which about 18,000 (9%) were called active. Only a selection was taken, and actives are over-represented in it overall.
measuredParameter: inhibition (%)
Write it as a number; the unit % goes unstated.

A selection of reference data follows.
COc1ccc(N2C(=O)CC(Sc3n[nH]c(-c4ccc(C)cc4)n3)C2=O)cc1 (configuration not stated)
-3.19
CCOc1ccc(C(CC(=O)O)n2cnnn2)cc1OC (configuration not stated)
-5.12

Input `CSc1ccc(CN2C(=O)NC3(CCCCCC3)C2=O)cc1` . Output inhibition: 9.1

Documented inhibition of `COc1ccc(Cl)cc1C(=O)NNC(=S)NC1CCCC1` : 17.1

Value of measured inhibition for the entry Cc1nnc(SCC(=O)NNC(=O)c2ccc(Cl)cc2)n1CC1CCCO1 (configuration not stated) : -2.51

// field: inhibition; key: `CCOC(=O)c1sc(NC(=O)CCN2CCOCC2)c(C(=O)OCC)c1C` ; value = 7.86

The recorded inhibition for entry `CC(=O)Nc1cc(C(=O)O)ccc1S(=O)(=O)c1ccc(Cl)cc1` equals -5.9

# inhibition (compound: `C/C=N/NC(=O)CCCC(=O)N/N=C/C` ) is 13.8

Per the record, `O=C(N/N=C/c1ccco1)c1ccc(C(=O)N/N=C/c2ccco2)o1` has inhibition of -1.3
